Cited source for all entries: patent US10053463B2

Biological target: P2X7 (Homo sapiens (Human), UniProt Q99572)
Sequence (Q99572 whole entry): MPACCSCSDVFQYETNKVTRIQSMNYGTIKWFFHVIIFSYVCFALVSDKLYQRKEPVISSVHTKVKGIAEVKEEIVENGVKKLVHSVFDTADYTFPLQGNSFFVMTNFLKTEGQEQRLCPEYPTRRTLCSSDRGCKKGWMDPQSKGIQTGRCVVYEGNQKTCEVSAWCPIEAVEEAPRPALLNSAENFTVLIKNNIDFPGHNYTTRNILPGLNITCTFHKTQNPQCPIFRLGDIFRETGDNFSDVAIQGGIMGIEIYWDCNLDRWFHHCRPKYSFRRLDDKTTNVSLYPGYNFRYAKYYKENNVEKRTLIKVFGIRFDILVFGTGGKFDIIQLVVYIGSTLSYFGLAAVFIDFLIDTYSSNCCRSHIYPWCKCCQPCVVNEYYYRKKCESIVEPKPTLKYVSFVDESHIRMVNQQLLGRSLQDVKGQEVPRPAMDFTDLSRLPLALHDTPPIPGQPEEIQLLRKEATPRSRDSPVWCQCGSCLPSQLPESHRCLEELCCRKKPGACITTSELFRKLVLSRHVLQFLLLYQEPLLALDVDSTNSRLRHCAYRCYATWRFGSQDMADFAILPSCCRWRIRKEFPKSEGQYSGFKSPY
Experiment: P2X7 antagonism in human peripheral blood mononuclear cells (PBMCs), IL-1β release
Type: cell-based
Settings: P2X7; Table 3 (additional runs); 10 μM compound; read-out: PBMC 10 μM (% control)
PROPERTY_MEASURED: remaining activity at 10 µM (%)
Report only the number, with the unit % understood.

Known value: P2X7 (Homo sapiens (Human), UniProt Q99572) remaining activity at 10 µM of the compound `C[C@H]1Cn2c(nnc2-c2cccc(C(F)(F)F)n2)C(=O)N1Cc1cccc(C(F)(F)F)c1Cl` equals 8.5

Known value: P2X7 (Homo sapiens (Human), UniProt Q99572) remaining activity at 10 µM of the compound C[C@H]1Cn2c(nnc2C2CCCNC2)C(=O)N1Cc1cccc(C(F)(F)F)c1Cl (stereo partly shown) equals 17.1

Known value: P2X7 (Homo sapiens (Human), UniProt Q99572) remaining activity at 10 µM of the compound CC(c1ccccc1)N1C(=O)c2nnc(-c3cnccn3)n2C[C@@H]1C (stereo partly shown) equals -1

Known value: P2X7 (Homo sapiens (Human), UniProt Q99572) remaining activity at 10 µM of the compound `C[C@H]1Cn2c(nnc2-c2ncccn2)C(=O)N1Cc1cccc(C(F)(F)F)c1Cl` equals -0.7

----------
Exercise: state measured remaining activity at 10 µM for each of the molecules provided.
Molecular target: UniProt Q99572
Experiment: P2X7 antagonism in human peripheral blood mononuclear cells (PBMCs), IL-1β release
Type: cell-based
Details: P2X7; Table 3 (additional runs); 10 μM compound; read-out: PBMC 10 μM (% control)
Report only the number, with the unit % understood.

// C[C@H](c1ccccc1)N1C(=O)c2nnc(-c3cnccn3)n2C[C@@H]1C (relative stereo) [Example 94] : remaining activity at 10 µM value = -1.3

// C[C@H]1Cn2c(-c3ncccn3)nnc2-c2nnc(-c3cccc(C(F)(F)F)c3Cl)n21 [Example 105] : remaining activity at 10 µM value = 0.2

// C[C@H]1Cn2c(-c3cc[nH]n3)nnc2-c2nnc(-c3cccc(C(F)(F)F)c3Cl)n21 [Example 103] : remaining activity at 10 µM value = 3.3

// O=C1c2nnc(-c3ncc(F)cn3)n2CC(C2CC2)N1Cc1cccc(C(F)(F)F)c1Cl (racemic) [Example 70] : remaining activity at 10 µM value = 9.1

----------
Exercise: state measured remaining activity at 10 µM for each of the molecules provided.
Target: P2X7 (Homo sapiens (Human), UniProt Q99572)
Test: P2X7 antagonism in human peripheral blood mononuclear cells (PBMCs), IL-1β release
Format: cell-based
Conditions: P2X7; Table 3 (additional runs); 10 μM compound; read-out: PBMC 10 μM (% control)
Protocol: P2X7 Antagonism in Human Peripheral Blood Mononuclear Cells (PBMCs) and Human Whole Blood. Human blood was collected using a blood donor program. PBMCs were isolated from blood using a Ficoll density gradient technique. […] Data was expressed as percent control, where control is defined as the difference in IL-1β release in LPS+Bz-ATP samples and LPS only samples. […] Data are analyzed and graphed on Graphpad Prism 5. […]
Report only the number, with the unit % understood.

Known value: P2X7 (Homo sapiens (Human), UniProt Q99572) remaining activity at 10 µM of the molecule `Cc1ncccc1-c1nnc2n1C[C@H](C)N(Cc1cccc(C(F)(F)F)c1Cl)C2=O` equals 0

Known value: P2X7 (Homo sapiens (Human), UniProt Q99572) remaining activity at 10 µM of the molecule `COc1ccnc(-c2nnc3n2C[C@H](C)n2c(-c4cccc(C(F)(F)F)c4Cl)nnc2-3)c1` equals 5.8

Known value: P2X7 (Homo sapiens (Human), UniProt Q99572) remaining activity at 10 µM of the molecule `C[C@H]1Cn2c(nnc2C2CCC2)C(=O)N1Cc1cccc(C(F)(F)F)c1Cl` equals -3.1

Known value: P2X7 (Homo sapiens (Human), UniProt Q99572) remaining activity at 10 µM of the molecule `C[C@H]1Cn2c(-c3ccc(F)cc3)nnc2-c2nnc(-c3cccc(C(F)(F)F)c3Cl)n21` equals 1.2

Known value: P2X7 (Homo sapiens (Human), UniProt Q99572) remaining activity at 10 µM of the molecule `O=C1c2nnc(-c3cnccn3)n2CCN1Cc1c(Cl)cccc1Cl` equals 8.8

Known value: P2X7 (Homo sapiens (Human), UniProt Q99572) remaining activity at 10 µM of the molecule `C[C@H]1Cn2c(nnc2-c2ccon2)C(=O)N1Cc1cccc(C(F)(F)F)c1Cl` equals 35

Known value: P2X7 (Homo sapiens (Human), UniProt Q99572) remaining activity at 10 µM of the molecule `C[C@H]1Cn2c(nnc2-c2cnccn2)C(=O)N1Cc1cccc(C(F)(F)F)c1Cl` equals 8.4

Known value: P2X7 (Homo sapiens (Human), UniProt Q99572) remaining activity at 10 µM of the molecule `Cc1nc(-c2nnc3n2C[C@H](C)N(Cc2cccc(C(F)(F)F)c2Cl)C3=O)cs1` equals 2.8

Known value: P2X7 (Homo sapiens (Human), UniProt Q99572) remaining activity at 10 µM of the molecule O=C1c2nnc(-c3cc[nH]n3)n2CC(C2CC2)N1Cc1cccc(C(F)(F)F)c1Cl (racemic) equals 1.6

Known value: P2X7 (Homo sapiens (Human), UniProt Q99572) remaining activity at 10 µM of the molecule `C[C@H]1Cn2c(-c3cnn(C)c3)nnc2-c2nnc(-c3cccc(C(F)(F)F)c3Cl)n21` equals 4.4

Known value: P2X7 (Homo sapiens (Human), UniProt Q99572) remaining activity at 10 µM of the molecule `C[C@H]1Cn2c(nnc2C2CCCCC2)C(=O)N1Cc1cccc(C(F)(F)F)c1Cl` equals 22.4

Known value: P2X7 (Homo sapiens (Human), UniProt Q99572) remaining activity at 10 µM of the molecule `C[C@H]1Cn2c(nnc2-c2ncc(F)cn2)C(=O)N1Cc1cccc(C(F)(F)F)c1Cl` equals 0.8

Known value: P2X7 (Homo sapiens (Human), UniProt Q99572) remaining activity at 10 µM of the molecule `Cc1cncc(-c2nnc3n2C[C@H](C)n2c(-c4cccc(C(F)(F)F)c4Cl)nnc2-3)c1` equals 2.4

Known value: P2X7 (Homo sapiens (Human), UniProt Q99572) remaining activity at 10 µM of the molecule `C[C@H]1Cn2c(nnc2-c2cccnc2)C(=O)N1Cc1cccc(C(F)(F)F)c1Cl` equals -3.4

Known value: P2X7 (Homo sapiens (Human), UniProt Q99572) remaining activity at 10 µM of the molecule C[C@H]1Cn2c(nnc2-c2cnccn2)C(=O)N1[C@@H](C)c1ccccc1 (relative stereo) equals 3.1

Known value: P2X7 (Homo sapiens (Human), UniProt Q99572) remaining activity at 10 µM of the molecule `C[C@H]1Cn2c(nnc2-c2ccc(F)cn2)C(=O)N1Cc1cccc(C(F)(F)F)c1Cl` equals 3.4
